Reported values of pIC50 for individual entries
System: MCF7
Assay: Cytotoxicity against human MCF7 cells harbouring wild type BRCA1/2 assessed as inhibition of cell growth incubated for 48 hrs by MTT assay
Type: functional, cell-based
Conditions: MCF7, 48 h
pIC50: −log10 of the molar value.
measured_parameter: pIC50

>>> recorded_result("O=C(c1cc(Cc2n[nH]c(=O)c3ccccc23)ccc1F)N1CCN(C(=O)C2CC2)CC1")
3.39
>>> recorded_result("CN1CCN(c2ncc3c(n2)CCN(C(=O)c2cc(Cc4n[nH]c(=O)c5ccccc45)ccc2F)C3)CC1")
4.14
>>> recorded_result("CCCCN(CCCC)c1ncc2c(n1)CCN(C(=O)c1cc(Cc3n[nH]c(=O)c4ccccc34)ccc1F)C2")
3.97
>>> recorded_result("O=C(c1cc(Cc2n[nH]c(=O)c3ccccc23)ccc1F)N1CCc2nc(N3CCCC3)ncc2C1")
3.84
>>> recorded_result("O=C(c1cc(Cc2n[nH]c(=O)c3ccccc23)ccc1F)N1CCc2nc(N3CCOCC3)ncc2C1")
3.70
>>> recorded_result("CCN1CCN(c2ncc3c(n2)CCN(C(=O)c2cc(Cc4n[nH]c(=O)c5ccccc45)ccc2F)C3)CC1")
4.05
